# System: HEK-293T
# measurement description: Multiplex assay against HEK293T
# Assay type: toxicity, cell-based
# condition set: human, 12 h, 10 µM, compound concentration 10 uM, replicate 2
test readout: Population Mitochondria Different-Phenotype (%)

>>> value("Cl.O=c1c2cccn2c2ccccc2n1CCCN1CCC(c2ccc(Cl)cc2)CC1")
91
>>> value("Cc1cn(-c2cc(NC(=O)c3ccc(C)c(Nc4nccc(-c5cccnc5)n4)c3)cc(C(F)(F)F)c2)cn1")
71
>>> value("O=C(Nc1ccc(-n2nc(-c3cccnc3)cc2C(F)(F)F)cn1)c1ccc(-c2ccccc2)c(F)c1")
15
>>> value("COCC(=O)NC/C=C/c1ccc2ncnc(Nc3ccc(Oc4ccc(C)nc4)c(C)c3)c2c1")
96
>>> value("C=C1/C(=C\\C=C2/CCC[C@]3(C)[C@@H]([C@H](C)/C=C/[C@H](C)C(C)C)CC[C@@H]23)C[C@@H](O)C[C@@H]1O")
20
>>> value("O=C1NC(=O)C(c2cnc3ccccn23)=C1c1cn2c3c(cc(F)cc13)CN(C(=O)N1CCCCC1)CC2")
85
>>> value("CCCn1c(=O)c2[nH]c(-c3cnn(Cc4cccc(C(F)(F)F)c4)c3)nc2n(CC)c1=O")
25
>>> value("O=C(Nc1cccnn1)N1CCC(=Cc2cccc(Oc3ccc(C(F)(F)F)cn3)c2)CC1")
12
>>> value("CCOc1cc2ncc(C#N)c(Nc3ccc(OCc4ccccn4)c(Cl)c3)c2cc1NC(=O)/C=C/CN(C)C")
11
>>> value("Cn1nc(C(=O)NCc2ccc(C(=O)O)cc2)cc1-c1ccc2[nH]ccc2c1")
4
>>> value("CN1CCN(C(=O)C(C)(C)c2ccc(C(=O)Nc3cn4cc(-c5cc(C(C)(C)C)cc(C(C)(C)C)c5)ccc4n3)cc2)CC1")
26
>>> value("CCCS(=O)(=O)Nc1ccc(F)c(C(=O)c2c[nH]c3ncc(Cl)cc23)c1F")
5
>>> value("COC(=N)c1nc2ccc3ncnc(Nc4ccc(OC)cc4F)c3c2s1")
8
>>> value("COc1cc(N2CCN(C)CC2)ccc1Nc1ncc2c(n1)N(C)c1ccccc1C(=O)N2C")
96
>>> value("Cn1nc(C(F)(F)F)cc1-c1cnc(N2CCc3cc(S(=O)(=O)Nc4c(F)cc(Cl)cc4F)cc(N4CCCC4=O)c32)nc1")
5
>>> value("COc1ccc(S(=O)(=O)N(CCO)c2ccccc2CN(C)C/C=C/c2ccc(Cl)cc2)cc1.O=P(O)(O)O")
21

###

# Tested on: U2OS
# measurement description: Multiplex assay against U2OS
# Format: toxicity, cell-based
# condition set: human, 48 h, 1 µM, compound concentration 1 uM, replicate 2
Classify by measured Population Tubulin-Different-Phenotype (%): Met if it is equal to or exceeds 20%, Not met if it is smaller.

>>> class_name("O=C1N/C(=N/c2ccccc2F)S/C1=C\\c1ccc(C(=O)O)cc1")
"Met"
>>> class_name("COc1cc(N2CCN(C)CC2)ccc1Nc1ncc2c(n1)N(C)c1ccccc1C(=O)N2C")
"Not met"
>>> class_name("Cc1cn(-c2cc(NC(=O)c3ccc(C)c(Nc4nccc(-c5cccnc5)n4)c3)cc(C(F)(F)F)c2)cn1")
"Met"
>>> class_name("CN1C2CCC1CC(OC(c1ccc(F)cc1)c1ccc(F)cc1)C2.Cl (stereo not given)")
"Not met"
>>> class_name("Cc1ccc(C(=O)Nc2cccc(C(F)(F)F)c2)cc1Nc1nc(-c2cccnc2)nc2c1cnn2C")
"Met"

###

# Tested on: HEK-293T
# measurement description: Multiplex assay against HEK293T
# Format: toxicity, cell-based
# condition set: human, 12 h, 1 µM, compound concentration 1 uM, replicate 2
Entries annotated with measured Population Normal (%)
test readout: Population Normal (%)

>>> value("O=C(Nc1ccc(-n2nc(-c3cccnc3)cc2C(F)(F)F)cn1)c1ccc(-c2ccccc2)c(F)c1")
97
>>> value("CCN1CCN(c2ccc(Nc3cc(N(C)C(=O)Nc4c(Cl)c(OC)cc(OC)c4Cl)ncn3)cc2)CC1")
96
>>> value("COc1ccc(-c2ccc3c(N4CCOCC4)nc(N4C[C@@H](C)O[C@@H](C)C4)nc3n2)cc1CO")
97
>>> value("O=C(Nc1ccc(-c2ccnc(Nc3ccc(N4CCOCC4)cc3)n2)cc1)[C@@H]1CCCN1")
95
>>> value("Cc1ccc(C(=O)Nc2cccc(C(F)(F)F)c2)cc1Nc1nc(-c2cccnc2)nc2c1cnn2C")
90
>>> value("CN[C@@H]1C[C@H]2O[C@@](C)([C@@H]1OC)n1c3ccccc3c3c4c(c5c6ccccc6n2c5c31)C(=O)NC4")
89
>>> value("COC(=N)c1nc2ccc3ncnc(Nc4ccc(OC)cc4F)c3c2s1")
94
>>> value("Cc1cc(C)c(S(=O)(=O)N(Cc2ccc(-c3cccc(S(C)(=O)=O)c3)cc2)Cc2ccc(C(F)(F)F)o2)c(C)c1")
95
>>> value("COc1ccc(S(=O)(=O)N(CCO)c2ccccc2CN(C)C/C=C/c2ccc(Cl)cc2)cc1.O=P(O)(O)O")
92
>>> value("O=C1N/C(=N/c2ccccc2F)S/C1=C\\c1ccc(C(=O)O)cc1")
95
>>> value("O=C(Nc1cccnn1)N1CCC(=Cc2cccc(Oc3ccc(C(F)(F)F)cn3)c2)CC1")
90
>>> value("CN(C)C(=O)C(CCN1CCC(O)(c2ccc(Cl)cc2)CC1)(c1ccccc1)c1ccccc1.Cl [LOPERAMIDE HYDROCHLORIDE]")
99
>>> value("COc1cc2ncnc(Nc3ccc(F)c(Cl)c3)c2cc1NC(=O)/C=C/CN1CCCCC1 [DACOMITINIB ANHYDROUS]")
95
>>> value("CCOc1cc(C(=O)N2CCC(N3CCN(C)CC3)CC2)ccc1Nc1ncc2c(n1)N(C1CCCC1)c1ccccc1C(=O)N2C")
94

###

# System: Fibroblast
# measurement description: Multiplex assay against human fibroblast
# Assay type: toxicity, cell-based
# condition set: 12 h, 10 µM, compound concentration 10 uM, replicate 1
Classify by measured Population Mitotic Cells (%): 1 (yes) if it is equal to or exceeds 30%, 0 (no) if it is smaller.

>>> class_name("COc1ccc(S(=O)(=O)N(CCO)c2ccccc2CN(C)C/C=C/c2ccc(Cl)cc2)cc1.O=P(O)(O)O")
"0 (no)"
>>> class_name("O=C(Cc1ccc(-c2ccc(OCCN3CCOCC3)cc2)cn1)NCc1ccccc1")
"1 (yes)"
>>> class_name("COc1cc(N2CCN(C)CC2)ccc1Nc1ncc2c(n1)N(C)c1ccccc1C(=O)N2C")
"1 (yes)"
>>> class_name("CCN1CCN(Cc2ccc(Nc3ncc(F)c(-c4cc(F)c5nc(C)n(C(C)C)c5c4)n3)nc2)CC1.CS(=O)(=O)O")
"1 (yes)"
>>> class_name("Cc1cn(-c2cc(NC(=O)c3ccc(C)c(Nc4nccc(-c5cccnc5)n4)c3)cc(C(F)(F)F)c2)cn1")
"0 (no)"
>>> class_name("CCOc1cc(C(=O)N2CCC(N3CCN(C)CC3)CC2)ccc1Nc1ncc2c(n1)N(C1CCCC1)c1ccccc1C(=O)N2C")
"1 (yes)"
>>> class_name("CCc1cccc(CC)c1NC(=O)c1nn(C)c2c1CCc1cnc(Nc3ccc(C(=O)NC4CCN(C)CC4)cc3OC(F)(F)F)nc1-2")
"1 (yes)"

###

# Test system: U2OS
# measurement description: Multiplex assay against U2OS
# Assay type: toxicity, cell-based
# condition set: human, 24 h, 10 µM, compound concentration 10 uM, replicate 2
test readout: Population Apoptotic (%)

>>> value("C=CCn1c(=O)c2cnc(Nc3ccc(N4CCN(C)CC4)cc3)nc2n1-c1cccc(C(C)(C)O)n1 [ADAVOSERTIB]")
68
>>> value("CNc1cc(Oc2cc(C(=O)Nc3cc(N4CCN(C)CC4)cc(C(F)(F)F)c3)ccc2C)ncn1")
76
>>> value("Cc1cc(C)c(S(=O)(=O)N(Cc2ccc(-c3cccc(S(C)(=O)=O)c3)cc2)Cc2ccc(C(F)(F)F)o2)c(C)c1")
14
>>> value("Cl.Oc1ccc2c3c1O[C@H]1c4[nH]c5c(c4C[C@@]4(O)[C@@H](C2)N(CC2CC2)CC[C@]314)C[C@@]1(O)[C@H]2Cc3ccc(O)c4c3[C@@]1(CCN2CC1CC1)[C@H]5O4")
76
>>> value("CCN1CCN(c2ccc(Nc3cc(N(C)C(=O)Nc4c(Cl)c(OC)cc(OC)c4Cl)ncn3)cc2)CC1 [INFIGRATINIB]")
27

###

Entries annotated with measured Population Normal (%)
# Test system: Fibroblast
# measurement description: Multiplex assay against human fibroblast
# Assay type: toxicity, cell-based
# condition set: 12 h, 10 µM, compound concentration 10 uM, replicate 2
test readout: Population Normal (%)

>>> value("CN(C)C(=O)C(CCN1CCC(O)(c2ccc(Cl)cc2)CC1)(c1ccccc1)c1ccccc1.Cl [LOPERAMIDE HYDROCHLORIDE]")
93
>>> value("O=C(Nc1ccc(-c2ccnc(Nc3ccc(N4CCOCC4)cc3)n2)cc1)[C@@H]1CCCN1")
94
>>> value("CCOC(=O)c1c(C)[nH]c2ccc3c(c12)CN1CCc2cc(OC)ccc2C1O3 (centres undefined)")
88
>>> value("COc1cc(N2CCN(C)CC2)ccc1Nc1ncc2c(n1)N(C)c1ccccc1C(=O)N2C")
94
